In this section, each of the molecules is paired with its reported viability, T/C.
- Tested on: 422866-222-R5-J1-PDC complex spheroids viability;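 further: spheroids exposed to compounds for 7 days; 100% = DMSO vehicle control viability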
- assayRemarks: Anticancer human tumor 422866-222-R5-J1-PDC patient-derived pancreatic adenocarcinoma cell line growth inhibition [RAS]
- condition: second compound 0.0949 µM; first compound 1 µM; hits give low values
Just the number please, in %, no unit attached.

Examples with answers:
molecule: CC(=O)OC12COC1CC(O)C1(C)C(=O)C(O)C3=C(C)C(OC(=O)C(O)C(NC(=O)OC(C)(C)C)c4ccccc4)CC(O)(C(OC(=O)c4ccccc4)C21)C3(C)C (stereo unspecified) + CCn1c(-c2cccnc2C(C)OC)c2c3cc(ccc31)N1CCOC(CC(NC(=O)C(C(C)C)N(C)C(=O)C3(F)CCN(C(=O)C#CC(C)(C)N(C)C)CC3)C(=O)N3CCCC(N3)C(=O)OCC(C)(C)C2)C1
uom: %
viability, T/C: 16.4
--
molecule: CC(C)NCC(C(=O)N1CCN(c2ncnc3c2C(C)CC3O)CC1)c1ccc(Cl)cc1 (stereo unspecified) + CCn1c(-c2cccnc2C(C)OC)c2c3cc(ccc31)N1CCOC(CC(NC(=O)C(C(C)C)N(C)C(=O)C3(F)CCN(C(=O)C#CC(C)(C)N(C)C)CC3)C(=O)N3CCCC(N3)C(=O)OCC(C)(C)C2)C1
uom: %
viability, T/C: 13.2
--
molecule: CC1(O)CCCC1n1c(=O)c(C(F)F)cc2cnc(NC3CCN(S(C)(=O)=O)CC3)nc21 (stereo unspecified) + CCn1c(-c2cccnc2C(C)OC)c2c3cc(ccc31)N1CCOC(CC(NC(=O)C(C(C)C)N(C)C(=O)C3(F)CCN(C(=O)C#CC(C)(C)N(C)C)CC3)C(=O)N3CCCC(N3)C(=O)OCC(C)(C)C2)C1
uom: %
viability, T/C: 22
--
molecule: O=C(c1ccc(F)c(F)c1Nc1ccc(I)cc1F)N1CC(O)([C@@H]2CCCCN2)C1 + CCn1c(-c2cccnc2C(C)OC)c2c3cc(ccc31)N1CCOC(CC(NC(=O)C(C(C)C)N(C)C(=O)C3(F)CCN(C(=O)C#CC(C)(C)N(C)C)CC3)C(=O)N3CCCC(N3)C(=O)OCC(C)(C)C2)C1
uom: %
viability, T/C: 10.4
--
molecule: CCN1CCN(Cc2ccc(Nc3ncc(F)c(-c4cc(F)c5nc(C)n(C(C)C)c5c4)n3)nc2)CC1 + CCn1c(-c2cccnc2C(C)OC)c2c3cc(ccc31)N1CCOC(CC(NC(=O)C(C(C)C)N(C)C(=O)C3(F)CCN(C(=O)C#CC(C)(C)N(C)C)CC3)C(=O)N3CCCC(N3)C(=O)OCC(C)(C)C2)C1
uom: %
viability, T/C: 37.2

Please give the measured viability, T/C for this molecule: CC1(O)CCCC1n1c(=O)c(C(F)F)cc2cnc(NC3CCN(S(C)(=O)=O)CC3)nc21 (stereo unspecified) + CCn1c(-c2cc(N3CCN(C)CC3)cnc2C(C)OC)c2c3cc(ccc31)-c1csc(n1)CC(NC(=O)C1CC1C)C(=O)N1CCCC(N1)C(=O)OCC(C)(C)C2
24

Each recorded value in this set is attributed to PubChem BioAssay AID2060901.
